assay: Cmax in crab-eating monkey at 6 mg/kg, ig by UPLC-MS/MS analysis; assay type: ADME, organism-based, Macaca fascicularis; parameters: dose 6 mg/kg, route ig; conditions: cynomolgus monkey, in vivo, po
endpoint.name: Cmax (ng/mL)
Give the number; ng/mL is assumed, so skip it.

Challenge: Given CC(C)NC[C@@H](C(=O)N1CCN(c2ncnc3c2[C@H](C)CC(=O)N3)[C@H]2C[C@H]21)c1ccc(Cl)cc1 , respond with its Cmax.
Response given: 237

---

The reader will find reported IC50 values listed item by item below.
target: RAC-alpha serine/threonine-protein kinase (Homo sapiens); test: Inhibition of recombinant AKT1 (104 to 480 end residues) (unknown origin) catalytic domain expressed in Sf21 cells using peptide substrate incubated for 1 hr in presence of ATP by caliper off-chip mobility shift assay
Sequence (P31749 whole entry, the tested form may be a part): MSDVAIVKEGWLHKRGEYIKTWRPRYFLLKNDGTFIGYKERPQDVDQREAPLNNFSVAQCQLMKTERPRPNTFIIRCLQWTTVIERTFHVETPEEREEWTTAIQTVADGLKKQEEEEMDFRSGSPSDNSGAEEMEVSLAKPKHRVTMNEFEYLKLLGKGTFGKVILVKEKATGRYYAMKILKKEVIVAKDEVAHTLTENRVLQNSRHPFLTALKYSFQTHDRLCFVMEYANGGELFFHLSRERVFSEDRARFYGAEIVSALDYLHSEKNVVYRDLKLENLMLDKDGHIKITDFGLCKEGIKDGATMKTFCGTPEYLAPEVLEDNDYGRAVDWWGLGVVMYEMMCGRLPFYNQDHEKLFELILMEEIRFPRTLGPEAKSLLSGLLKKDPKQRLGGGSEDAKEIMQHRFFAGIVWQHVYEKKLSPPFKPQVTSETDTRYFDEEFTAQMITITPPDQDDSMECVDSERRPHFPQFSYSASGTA
Give your result in nM as a bare value.

Some compounds with recorded IC50:
COC1CCC(NC[C@@H](C(=O)N2CCN(c3ncnc4c3[C@H](C)CC(=O)N4)[C@H]3C[C@H]32)c2ccc(Cl)cc2)CC1 (stereo partly drawn): 1.3
[2H]C1([2H])N(C(=O)[C@H](CNC(C)C)c2ccc(Cl)cc2)C([2H])([2H])C([2H])([2H])N(c2ncnc3c2[C@H](C)CC(=O)N3)C1([2H])[2H]: 1.6
CC(C)NC[C@@H](C(=O)N1C[C@H]2CC[C@@H](C1)N2c1ncnc2c1N(C)CC(=O)N2)c1ccc(Cl)cc1: 30
CC(C)NC[C@@H](C(=O)N1C[C@H]2CC[C@@H](C1)N2c1ncnc2c1[C@H](C)OC(=O)N2)c1ccc(Cl)cc1: 1.6
CC(C)NC[C@@H](C(=O)N1CC=C(c2ncnc3c2[C@H](C)CC(=O)N3)CC1)c1ccc(Cl)cc1: 951

Proceed to the following item.
Challenge: Determine its reported IC50: CC(C)NC[C@@H](C(=O)N1CCN(c2ncnc3c2[C@H](C)OC(=O)N3)[C@H]2C[C@H]21)c1ccc(Cl)cc1
Response given: 0.6
